Values from patent US10703784B2

System: PBMCs depleted of CD4+ or CD8+ T cells
Format: cell-based, human
Settings: phenotype of the responding T cells per donor; n.d. = assay not done
ASSAY_ENDPOINT: T cell phenotype

Below: 4 sequences and their reported T cell phenotype.
Value lookup for T cell phenotype; key = IVQINGRHFDLRAQG
undetectable

Value lookup for T cell phenotype; key = AATQARAAAAAFEAA
undetectable

Value lookup for T cell phenotype; key = FGQNTASIAATEAQY
CD4

Value lookup for T cell phenotype; key = YAAALVAMPTLAELA
undetectable

Please give T cell phenotype, item by item, for the list that follows.
1. LLEFAVVLELAILSI
2. AYGSFVRTVSLPVGA
3. ALSRVHSMFLGTGGS
4. YASVEAANASPLQVA
5. ALLPRAGAAAAAALP
6. DPMVQIPRLVANNTR

["undetectable", "CD4", "CD4", "undetectable", "CD4", "undetectable"]

Please give T cell phenotype, item by item, for the list that follows.
1. AQNGVQAMSSLGSSL
2. APYVAWMRATAIQAE
3. MSFVTTQPEALAAAA
4. AEAPAAAAAPEEQVQ

1: CD4; 2: undetectable; 3: CD4; 4: CD4

Please give T cell phenotype, item by item, for the list that follows.
1. AAIHEMFVNTLQMSS
2. MHVSFVMAYPEMLAA

1: CD8; 2: CD4

Please give T cell phenotype, item by item, for the list that follows.
1. WFINWYLPISQLFYN
2. GWSSLGREYAAVAEE

1: undetectable; 2: CD4

Value lookup for T cell phenotype; key = ELFVAAYVPYVAWLV
undetectable
